Sourced from PubChem BioAssay AID504465

assay remarks: IN Cell qHTS Assay for Inhibitors of the mTORC1 Signaling Pathway in MEF (Tsc2-/-, p53-/-) Cells: Sytravon; further: nearly all actives have a fitted effect of over 60% in size
condition: phospho-rpS6 immunofluorescence, 24 h; series mostly up to 38.3 µM
In all, about 2,100 compounds went through this assay and about 210 (10%) were called active. Roughly 53% stayed inconclusive and do not appear here. The call rests on the fitted dose curve; in most records, active means well fitted inhibition curve with a large enough effect; inconclusive means small, poorly fitted or top-dose-only effect, or effect the other way; inactive means no such curve, though single readings can be large or run the other way. This is one part of the list.
Entry note: the call must match one of y for active, n for inactive

Worked set:
> print(dat)
                                   compound  class.assignment
1  CCS(=O)(=O)c1ncc(Cl)c(C(=O)N2CCN(c3cccc(Cl)c3)CC2)n1                 y
2  Cc1oc2ncnc(N3CCCCC3)c2c1C(=O)N1CCN(c2cccc(Cl)c2)CC1                 n
3  CC1CCCCN1CCCNC(=O)c1cc(Sc2cccc(Cl)c2)nc2ccccc12 (configuration not stated)                 n
4  COc1ccc(NC(=O)c2c(NCc3ccc(C)o3)sc3c2CCC(C)C3)cc1 (configuration not stated)                 n
5  CCOC(=O)N1CCc2c(sc3c2C(=O)NC(c2cc(OC)c(OC)c(OC)c2)N3)C1 (configuration not stated)                 n
6  CCC1CCCCN1CCCNC(=O)c1c(C)oc2ncn(CC(C)C)c(=O)c12 (configuration not stated)                 n

Could you now consider this next compound?
# input What call does the record list for COc1ccc(CC(=O)Nc2sc3c(c2C(=O)Nc2cccc(C)c2)CCCCC3)cc1 ?
# output y
